B1: LINE1-mini (parent)
chain: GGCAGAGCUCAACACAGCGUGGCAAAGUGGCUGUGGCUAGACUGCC

# Variants of: B1
# MEASUREMENT DESCRIPTION: self-cleavage, relative activity (ratio to wild type); higher = more cleavage; in vitro, sequencing; the parent is a self-cleaving ribozyme
Classify as follows. Reported self-cleavage greater than or equal to 0.6: rule met. Reported self-cleavage below: rule not met.

Has GGCAGAGCUCAACACAGCUUGGCAAAGUGGCUGGGGCUAGACUGCC [G19U U34G] a recorded self-cleavage greater than or equal to 0.6?
rule not met

# bool: self-cleavage of GGCAGAGCUCAACACAGCGUGGCAAAGUGGCCGUGGCUGGACUGCC [U32C A39G] >= 0.6
rule not met

Is it the case that GGCAGUGCUCAACACAGCGUGGCAAAGUGGCUGUGGCUAGAAUGCC [A6U C42A] has self-cleavage reaching or exceeding 0.6?
rule not met

Does the reported self-cleavage for GGCAGCGCUCAACACAGCGUGGCAAAGUGGCUGUGGCUAGAGUGCC [A6C C42G] fall at or above the 0.6 mark?
rule not met

Does self-cleavage meet or surpass 0.6 for GGCAGAGCUCAACACAGCGUGGCAGAGUCGCUGUGGCUAGACUGCC [A25G G29C] ?
rule met

Has GGCAGAGCUCAACACAGCGUGGCAAAGUGUCCGUGGCUAGACUGCC [G30U U32C] a recorded self-cleavage greater than or equal to 0.6?
rule not met

Is reported self-cleavage greater than or equal to 0.6 here: GGUAGAGCUCAACACAGCGUAGCAAAGUGGCUGUGGCUAGACUGCC [C3U G21A]
rule met

Decide: is the reported value of self-cleavage for GGCAGAGCUCAACACAGCGUGGAAAAGUGUCUGUGGCUAGACUGCC [C23A G30U] equal to or greater than 0.6?
rule met

Given the entry GGCAGAGCUCAACACAGCGUGGCAAAGUGGCUGUGGGCAGACUGCC [C37G U38C] , answer whether its self-cleavage meets or surpasses 0.6.
rule not met

Item GGCAGAGCUCAACACAGGGUGGCAAAGUGGCUGUGCCUAGACUGCC [C18G G36C] with self-cleavage of 0.6 or above?
rule not met
